# Test system: CCRIS mutagenicity, Ames/micronucleus/aberration tests
# ASSAY_TEXT: CCRIS mutagenicity studies
# APPLIED_CONDITIONS: Test System: AMES SALMONELLA TYPHIMURIUM; Strain/Indicator: TA1535; Metabolic Activation: NONE; Method: STANDARD PLATE
Active and inactive are the calls of the source. How the calls were made is not given here.
PROPERTY_LABEL: mutagenic call

Worked set:
c1ccc(-c2ccccc2OCC2CO2)cc1 (configuration not stated)    active; positive
O=C1c2ccccc2C(=O)c2c(O)c(O)cc(O)c21    inactive; negative
Clc1cc(Cl)c(Cl)cc1Cl    inactive; negative
O=c1[nH]c2ccccc2n1C1CCN(CCCC(c2ccc(F)cc2)c2ccc(F)cc2)CC1    inactive; negative
ONc1ccc(-c2ccccc2)cc1    inactive; negative

Ask | API: value(readout= mutagenic call, system= CCRIS mutagenicity, Ames/micronucleus/aberration tests, query= CC[C@H](C)OS(C)(=O)=O )
Reply | active; positive

Ask | API: value(readout= mutagenic call, system= CCRIS mutagenicity, Ames/micronucleus/aberration tests, query= O=C(O)c1cc(I)cc2cccnc12 )
Reply | inactive; negative
